Cited source: the kinase profiling compilation of Christmann-Franck et al. (2016)

target: CHEK1 (human); assay: radiometric filter-binding kinase assay, Kinase HotSpot; details: compound 0.5 µM; ATP 10 µM

Smiles data	Value unit	residual activity
O=C1Nc2ccc(Cl)cc2/C1=C/c1cc(Cl)c(O)c(Cl)c1	%	86.4
COc1ccc(COc2ccc(Cc3cnc(N)nc3N)cc2OC)cc1	%	107
c1ccc(-c2n[nH]c3c2oc2ccccc23)cc1	%	117

###

target: UniProtKB Q9HBY8; assay: radiometric filter-binding kinase assay, Kinase HotSpot; conditions: compound 0.5 µM; ATP 10 µM
Sequence (Q9HBY8 whole entry, looked up): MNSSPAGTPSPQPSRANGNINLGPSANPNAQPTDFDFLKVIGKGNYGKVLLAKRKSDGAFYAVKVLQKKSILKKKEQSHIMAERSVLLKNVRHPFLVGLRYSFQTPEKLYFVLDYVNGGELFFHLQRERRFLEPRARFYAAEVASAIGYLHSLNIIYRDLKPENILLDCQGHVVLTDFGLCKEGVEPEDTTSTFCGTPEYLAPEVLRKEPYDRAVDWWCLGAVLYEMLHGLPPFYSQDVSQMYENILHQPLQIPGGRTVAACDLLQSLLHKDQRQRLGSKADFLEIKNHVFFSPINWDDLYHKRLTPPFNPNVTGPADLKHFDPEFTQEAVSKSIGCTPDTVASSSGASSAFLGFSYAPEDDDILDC
Here the recorded residual activity is given for each entry.
Outcome measure: residual activity (%)

Smiles data	Outcome measure	Endpoint value
Nc1ncnc2c1c(-c1ccc(Oc3ccccc3)cc1)cn2C1CCCC1	residual activity	95.4
COc1cc2ncnc(Nc3cccc(Cl)c3)c2cc1OC	residual activity	97.8
CCN(CC)CCNC(=O)c1c(C)[nH]c(/C=C2\C(=O)Nc3ccc(F)cc32)c1C	residual activity	93.1
COc1ccc2c(c[n+](C)c3c4cc5c(cc4ccc23)OCO5)c1OC	residual activity	99.1
N#C/C(=C(/N)Sc1ccc(N)cc1)c1ccccc1C(F)(F)F	residual activity	99
Nc1ccc2ncnc(NCCc3ccc(Oc4ccccc4)cc3)c2c1	residual activity	99.6
c1ccc(-c2n[nH]cc2-c2ccnc3ccccc23)nc1	residual activity	101
O=c1cc(N2CCOCC2)oc2c1ccc1ccccc12	residual activity	102
CNc1cc2c(Nc3cccc(Br)c3)ncnc2cn1	residual activity	96.6
CCC(=O)Nc1ccc2ncnc(Nc3cccc(Br)c3)c2c1	residual activity	96.2
Oc1cccc(-c2nc(N3CCOCC3)c3oc4ncccc4c3n2)c1	residual activity	96.7
